target.entity: anti-A022 antibody (PSA PET)
experimental.details: peptide competition assay in 6% BSA
Where no end group is shown, it is not given here.
readout.label: pIC50
Units for pIC50: none; it is -log10 of a concentration expressed in mol/L.

## Input For the binder CDLPTQEPALG-NH2 [A022 peptide (PSA), …-NH2] , what pIC50 is on record?
## Output 8.10
